system_under_test: EPHB1 (UniProt P54762)
Sequence (P54762 whole entry, looked up): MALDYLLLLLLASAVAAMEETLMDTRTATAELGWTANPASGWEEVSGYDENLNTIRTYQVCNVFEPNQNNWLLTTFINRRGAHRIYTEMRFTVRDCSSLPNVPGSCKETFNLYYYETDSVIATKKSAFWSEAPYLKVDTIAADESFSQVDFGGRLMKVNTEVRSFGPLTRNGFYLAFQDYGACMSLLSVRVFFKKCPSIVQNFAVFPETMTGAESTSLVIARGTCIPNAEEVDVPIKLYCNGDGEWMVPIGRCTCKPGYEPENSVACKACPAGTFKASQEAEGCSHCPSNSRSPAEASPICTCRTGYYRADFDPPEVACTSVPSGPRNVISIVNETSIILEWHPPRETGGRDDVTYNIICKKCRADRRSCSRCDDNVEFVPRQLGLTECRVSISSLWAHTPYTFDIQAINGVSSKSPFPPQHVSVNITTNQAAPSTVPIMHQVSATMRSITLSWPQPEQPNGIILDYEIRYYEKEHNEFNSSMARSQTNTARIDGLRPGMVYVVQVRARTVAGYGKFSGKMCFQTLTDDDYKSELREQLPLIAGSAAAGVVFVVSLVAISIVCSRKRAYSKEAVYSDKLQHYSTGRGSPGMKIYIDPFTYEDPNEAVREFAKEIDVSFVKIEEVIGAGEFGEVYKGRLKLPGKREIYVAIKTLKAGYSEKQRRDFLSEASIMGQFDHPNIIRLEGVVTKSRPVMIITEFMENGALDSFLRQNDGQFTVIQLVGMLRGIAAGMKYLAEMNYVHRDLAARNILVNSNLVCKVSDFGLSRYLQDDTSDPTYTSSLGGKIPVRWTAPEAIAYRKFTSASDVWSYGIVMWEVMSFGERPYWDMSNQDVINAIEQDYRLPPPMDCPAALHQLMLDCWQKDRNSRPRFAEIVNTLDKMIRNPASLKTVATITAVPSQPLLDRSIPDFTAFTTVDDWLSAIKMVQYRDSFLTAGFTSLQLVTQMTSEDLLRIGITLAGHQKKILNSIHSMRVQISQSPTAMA
protocol_summary: phosphorylation enrichment, bacterial display (enrichment ratio); higher = better substrate or ligand; peptides without Tyr show the background;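 further: 11-residue human phosphosite peptides and single-mutation variants displayed on the E. coli surface, counted by deep sequencing, each peptide's frequency after selection divided by its frequency in the unselected input library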;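 further: frequency after pTyr selection over input frequency; kinase dosed for 20-30% of maximal phosphorylation in three min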
Binned phosphorylation enrichment; ranges: lower band = under 0.5, central band = from 0.5 up to 1, upper band = 1 and over

Pick a category. Item: WKEREYEVVRD [CPS1_Y634_I632R] upper band

Pick a category. Item: REAAAYPHGRL [AGXT_Y297_L298P] lower band

Pick a category. Item: EQFELYCEMGS [CBL_Y371_YF] upper band

Pick a category. Item: VDSIEYEVASQ [SLC7A7_Y7_T5I] central band

Pick a category. Item: PKEQKYSFLQD [GH1_Y68_N73D] central band

Pick a category. Item: WAFNLYDINKD [KCNIP3_Y174] upper band

Pick a category. Item: GRERPYGGGGG [FUS_Y526_R521G] central band

Pick a category. Item: PDKRIYQFTAA [SKAP2_Y197] central band

Pick a category. Item: FISLIYTNFEA [GSTP1_Y109_YF] upper band

Pick a category. Item: RNDLDYMDSRR [GAA_Y407_W402R] lower band

Pick a category. Item: AADGRYEVLFL [SEMA3F_Y478] central band

Pick a category. Item: RAIELYNDKEK [OTULIN_Y244] central band

Pick a category. Item: ALKWGYTVKGI [OAT_Y158_R154L] lower band

Pick a category. Item: VRSVDYVLFRS [FAM189B_Y361] central band

Pick a category. Item: AHLLQYNHRVK [LGALS3_Y221] lower band

Pick a category. Item: FRNSLYAPDFS [FAM92A_Y226_YF] upper band

Pick a category. Item: LNERHYGGLTD [PGAM2_Y92_G97D] upper band

Pick a category. Item: QSKGIYYVQLE [MGAT4B_Y262] upper band

Pick a category. Item: ASPKSYPSQKH [CAP2_Y316_T311A] lower band

###

system_under_test: Hck (UniProt P08631)
Sequence (P08631 whole entry, looked up): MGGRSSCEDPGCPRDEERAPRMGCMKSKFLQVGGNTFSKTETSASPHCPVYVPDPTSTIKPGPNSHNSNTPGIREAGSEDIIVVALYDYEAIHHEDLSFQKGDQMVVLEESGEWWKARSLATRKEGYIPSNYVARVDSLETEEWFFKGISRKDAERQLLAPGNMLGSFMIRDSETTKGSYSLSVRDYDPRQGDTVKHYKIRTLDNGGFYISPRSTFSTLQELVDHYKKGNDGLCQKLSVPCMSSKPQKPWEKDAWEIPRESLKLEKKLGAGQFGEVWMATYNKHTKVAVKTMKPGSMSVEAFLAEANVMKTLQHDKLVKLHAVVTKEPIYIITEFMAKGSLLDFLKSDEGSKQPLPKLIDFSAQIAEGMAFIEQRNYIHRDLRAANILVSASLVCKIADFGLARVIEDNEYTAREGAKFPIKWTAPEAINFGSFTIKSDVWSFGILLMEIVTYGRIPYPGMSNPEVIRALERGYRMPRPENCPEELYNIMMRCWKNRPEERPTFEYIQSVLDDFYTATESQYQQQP
protocol_summary: phosphorylation enrichment, bacterial display (enrichment ratio); higher = better substrate or ligand; peptides without Tyr show the background
Everything with phosphorylation enrichment lower than 0.5 is f; everything else, including exactly 0.5, is t.

Would you say TEAGDYKLCFD [TMED1_Y103] shows phosphorylation enrichment at minimum 0.5? t

Would you say LLRFLYFFVCS [SLC34A2_Y109_G106R] shows phosphorylation enrichment at minimum 0.5? t

Would you say AESPEHVHMFT [FAM111A_Y511_Y511H_YF] shows phosphorylation enrichment at minimum 0.5? f

Would you say PSELYYSKIGP [SMG1_Y2254] shows phosphorylation enrichment at minimum 0.5? t

Would you say ASTDYNKRGDF [PDHA1_Y243_Y243N] shows phosphorylation enrichment at minimum 0.5? f

Would you say GRERPYGGGGG [FUS_Y526_R521G] shows phosphorylation enrichment at minimum 0.5? t

Would you say VRQQDYKKVEE [HADHA_Y283_V282D] shows phosphorylation enrichment at minimum 0.5? f

Would you say CTTIHYTYMCN [TP53_Y234_N235T] shows phosphorylation enrichment at minimum 0.5? t

Would you say KNRDVSSSDFF [USP24_Y2134_Y2134S_YF] shows phosphorylation enrichment at minimum 0.5? f

Would you say QSHKVYVQHLL [POR_Y604] shows phosphorylation enrichment at minimum 0.5? t

Would you say IVAEYYDNLPH [DEGS1_Y284_A280V] shows phosphorylation enrichment at minimum 0.5? t

Would you say GGFNNYGFGND [HNRNPH3_Y159_YF] shows phosphorylation enrichment at minimum 0.5? f

Would you say IEDNKYTAREG [HCK_Y411_E410K] shows phosphorylation enrichment at minimum 0.5? f

Would you say ASKEPYYVRCI [MYO1D_Y585] shows phosphorylation enrichment at minimum 0.5? f

Would you say KTTGGYAGGLS [KRT8_Y419_S417G] shows phosphorylation enrichment at minimum 0.5? f

Would you say MLEVSYVDRNS [F10_Y384_P383S] shows phosphorylation enrichment at minimum 0.5? f

Would you say YAKSVYWENTL [NUP107_Y296] shows phosphorylation enrichment at minimum 0.5? t

Would you say LNERHYGGLTD [PGAM2_Y92_G97D] shows phosphorylation enrichment at minimum 0.5? t

Would you say MSRFIYSTDFF [NTRK1_Y676_D674Y_YF] shows phosphorylation enrichment at minimum 0.5? t

Would you say YRTGHYLCNAC [GATA1_Y223_D218Y] shows phosphorylation enrichment at minimum 0.5? f

Would you say KKMKCYHVGKV [HARS2_Y151_R150C] shows phosphorylation enrichment at minimum 0.5? f

Would you say FPILNYKDIRK [CFAP221_Y798_M795I] shows phosphorylation enrichment at minimum 0.5? f

Would you say TSFSGYRCHRH [NKAPL_Y94_Y96C_YF] shows phosphorylation enrichment at minimum 0.5? f

Would you say DISEPYKVYRI [IRF8_Y107] shows phosphorylation enrichment at minimum 0.5? t

Would you say IFHENYNAGTY [CFI_Y421] shows phosphorylation enrichment at minimum 0.5? t

Would you say DGLALYTGSAL [COL6A3_Y524_S521L] shows phosphorylation enrichment at minimum 0.5? t

Would you say FSCLPCGRLAY [SLC52A2_Y305_Y305C] shows phosphorylation enrichment at minimum 0.5? f

Would you say NHYKIYNLYAE [PTEN_Y68_C71Y] shows phosphorylation enrichment at minimum 0.5? t

Would you say KGNMYYENSYA [EGFR_Y113_R108K] shows phosphorylation enrichment at minimum 0.5? t

Would you say KICDWYQRQRP [KRT14_Y151_R148C] shows phosphorylation enrichment at minimum 0.5? f

Would you say RESSGYLRLAF [MEP1A_Y481] shows phosphorylation enrichment at minimum 0.5? t

Would you say GIVEEYQLPYY [BMPR1A_Y453] shows phosphorylation enrichment at minimum 0.5? t

Would you say LKGQVYILVRE [ASS1_Y359_G362V] shows phosphorylation enrichment at minimum 0.5? f

Would you say AADGRYEVLFL [SEMA3F_Y478] shows phosphorylation enrichment at minimum 0.5? t
